# log10 of Ki measurements, system: Carbonic anhydrase 1 (Homo sapiens)
# Sequence (P00915 whole entry): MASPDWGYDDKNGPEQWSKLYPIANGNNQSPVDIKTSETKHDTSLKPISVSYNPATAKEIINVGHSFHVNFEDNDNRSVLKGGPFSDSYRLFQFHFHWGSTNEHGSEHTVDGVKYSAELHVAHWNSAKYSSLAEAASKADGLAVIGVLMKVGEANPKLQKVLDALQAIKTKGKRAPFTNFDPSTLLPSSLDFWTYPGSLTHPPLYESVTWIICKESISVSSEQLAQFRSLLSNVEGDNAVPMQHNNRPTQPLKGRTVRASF
property_measured: log10 of Ki (log10 of the value in µM)

# compound, log10 of Ki
rows = [
    ("CC1(C)OC[C@@H]2O[C@@]3(C(=O)NNS(N)(=O)=O)OC(C)(C)O[C@H]3[C@@H]2O1", 2.62),
    ("CC1(C)OC[C@@H]2O[C@@]3(COC(=O)NS(N)(=O)=O)OC(C)(C)O[C@H]3[C@@H]2O1", 0.08),
    ("CC1(C)O[C@@H]2O[C@@H](COS(N)(=O)=O)[C@H]3OC(C)(C)O[C@H]3[C@@H]2O1", 2.60),
    ("NS(=O)(=O)O [SULFAMATE]", 1.32),
    ("CC1(C)OC[C@@H]2O[C@@]3(C(=O)NS(N)(=O)=O)OC(C)(C)O[C@H]3[C@@H]2O1", -0.12),
]

* * *

Data export: Ki values recorded with Carbonic anhydrase 2 (Homo sapiens, UniProt P00918).

# compound_string, Ki
rows = [
    ("CC1(C)OC[C@@H]2O[C@@]3(C(=O)NS(N)(=O)=O)OC(C)(C)O[C@H]3[C@@H]2O1", "68 nM"),
    ("CC1(C)O[C@@H]2[C@@H](CO[C@@]3(C(=O)NS(N)(=O)=O)OC(C)(C)O[C@@H]23)O1", "> 100000 nM"),
    ("CC1(C)OC[C@@H]2O[C@@]3(COC(=O)NS(N)(=O)=O)OC(C)(C)O[C@H]3[C@@H]2O1", "71 nM"),
    ("CC1(C)O[C@H]2[C@@H](O1)[C@@H](C(=O)NNS(N)(=O)=O)O[C@@H]1OC(C)(C)O[C@@H]12", "15000 nM"),
]
